Give measured pEC50 for each item. Keep answers brief.
- Experiment Notes: Inhibition of FLAG-tagged PARL (unknown origin) overexpressed in HEK293-T-REx cells assessed as reduction in substrate cleavage using PGAM5-Myc as substrate incubated for overnight by densitometry assay
- Type: cell-based, Homo sapiens
Quick note: pEC50 values are minus log10 of concentrations in mol/L.

Look at this molecule and give its reported pEC50. `CCC1(CC)C(=O)N(c2ccc(CN(Cc3ccccc3)Cc3ccccc3)cc2)C1=O`
6.52

Look at this molecule and give its reported pEC50. `CCC1(CC)C(=O)N(Cc2ccc(C(=O)OCc3ccccc3)cc2)C1=O`
6.66

###

Give measured pIC50 for each item. Keep answers brief.
Quick note: pIC50 values are minus log10 of concentrations in mol/L.

Query pIC50 on Presenilin-associated rhomboid-like protein, mitochondrial (Homo sapiens) for `CCC1(CC)C(=O)N(c2ccc(CN3CCc4cc5c(cc4C3)OCO5)cc2)C1=O`
Sequence (Q9H300 whole entry): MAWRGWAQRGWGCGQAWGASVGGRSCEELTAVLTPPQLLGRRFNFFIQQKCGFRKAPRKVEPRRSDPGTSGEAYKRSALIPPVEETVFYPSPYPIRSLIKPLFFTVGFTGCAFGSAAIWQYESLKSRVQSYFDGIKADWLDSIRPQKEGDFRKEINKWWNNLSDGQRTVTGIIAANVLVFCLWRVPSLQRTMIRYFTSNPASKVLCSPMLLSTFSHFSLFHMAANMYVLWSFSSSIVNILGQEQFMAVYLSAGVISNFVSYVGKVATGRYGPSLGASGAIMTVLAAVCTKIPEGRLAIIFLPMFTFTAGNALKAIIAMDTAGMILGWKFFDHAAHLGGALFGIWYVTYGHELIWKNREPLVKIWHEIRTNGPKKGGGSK
6.25

Query pIC50 on Presenilin-associated rhomboid-like protein, mitochondrial (Homo sapiens) for `CCC1(CC)C(=O)N(c2ccc(CN(Cc3ccccc3)Cc3ccccc3)cc2)C1=O`
6.82

Query pIC50 on Presenilin-associated rhomboid-like protein, mitochondrial (Homo sapiens) for `CCC1(CC)C(=O)N(Cc2ccc(C(=O)OCc3ccccc3)cc2)C1=O`
6.80
